assayed_target: human histamine H3 receptor (Homo sapiens)
Sequence (Q9Y5N1 whole entry): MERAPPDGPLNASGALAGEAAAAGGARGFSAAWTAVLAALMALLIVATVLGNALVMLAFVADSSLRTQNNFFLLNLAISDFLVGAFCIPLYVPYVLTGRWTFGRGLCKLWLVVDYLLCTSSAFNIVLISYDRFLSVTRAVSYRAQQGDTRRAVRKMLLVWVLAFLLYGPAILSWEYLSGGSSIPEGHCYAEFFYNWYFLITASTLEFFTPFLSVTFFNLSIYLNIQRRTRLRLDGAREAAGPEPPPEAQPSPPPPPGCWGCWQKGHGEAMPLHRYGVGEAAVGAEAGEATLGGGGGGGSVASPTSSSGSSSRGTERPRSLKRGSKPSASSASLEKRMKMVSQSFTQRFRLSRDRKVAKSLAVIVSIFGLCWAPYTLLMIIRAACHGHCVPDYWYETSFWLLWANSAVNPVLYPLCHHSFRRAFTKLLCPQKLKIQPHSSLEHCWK
experiment_summary: H3 GTPγS assay (SPA method), histamine H3 in vitro assay
test_parameters: GTPγ[35S] binding to membranes of cells expressing human H3; antagonist mode with R-γ-Me-Histamine at EC80 (30 nM); in one embodiment HCl salts tested; read-out: Potency (functional potency as indicated by IC50)
Please go through the items and note down their IC50.

O=C(C1CCC1)N1CCc2cc3nc4n(c3cc2C1)CCN(C1CCC1)CC4 : ≤ 100 nM
CC(C1CCC1)N1CCc2nc3cc(-c4ccc5[nH]ccc5c4)ccc3n2CC1 (stereo not drawn) : ≥ 1000 nM
c1cnnc(-c2ccc3c(c2)nc2n3CCN(C3CCC3)CC2)c1 : ≤ 100 nM

Record IC50 per entry; entries follow.
1. c1cnc(-c2ccc3c(c2)nc2n3CCN(C3CCC3)CC2)cn1
2. c1cnc(-c2ccc3c(c2)nc2n3CCN(C3CCC3)CC2)nc1
3. c1cc(-c2ccc3c(c2)nc2n3CCN(C3CCC3)CC2)nc(N2CCCC2)n1
4. c1cc2cc(-c3ccc4nc5n(c4c3)CCN(C3CCC3)CC5)ccc2[nH]1
5. c1cc2c(cc1N1CCC(N3CCOCC3)CC1)nc1n2CCN(C2CCC2)CC1

Output:
1: ≤ 10 nM; 2: ≤ 100 nM; 3: ≤ 10 nM; 4: ≤ 1000 nM; 5: ≤ 10 nM
